Numbers sourced from the supplement of paper PMC8882468.

Below: a set of entries, each annotated with reported CTG-3D luminescence at 96 h.
- Test system: HCI-010 (organoid from a breast cancer xenograft)
- measurement description: CTG-3D luminescence at 96 h relative to day-0 seeding control (ratio to day 0); higher = more growth / less cytotoxicity; PDxO 3D drug screen (set 2), 96 h, CTG-3D normalised to day-0 seeding control.
- condition context: 0.1 µM; days in culture: 79

molecule	CTG-3D luminescence at 96 h
CCOc1ccn(-c2ccc(F)cc2)c(=O)c1C(=O)Nc1ccc(Oc2ccnc(N)c2Cl)c(F)c1 [ASLAN002]	2.05
O=C(c1cc(Cc2n[nH]c(=O)c3ccccc23)ccc1F)N1CCN(C(=O)C2CC2)CC1 [olaparib]	2.11
CC(C)n1nc(-c2ccc3oc(N)nc3c2)c2c(N)ncnc21 [sapanisertib]	0.599
C[C@@H](Nc1cc(F)cc(F)c1)c1cc(C(=O)N(C)C)cc2c(=O)cc(N3CCOCC3)oc12 [AZD-8186]	1.98
CO[C@H]1C[C@@H]2CC[C@@H](C)[C@@](O)(O2)C(=O)C(=O)N2CCCC[C@H]2C(=O)O[C@H]([C@H](C)C[C@@H]2CC[C@@H](O)[C@H](OC)C2)CC(=O)[C@H](C)/C=C(\C)[C@@H](O)[C@@H](OC)C(=O)[C@H](C)C[C@H](C)/C=C/C=C/C=C/1C [rapamycin]	1.13
